# tgt: T1, LAIR1 on LAIR1 reporter cells (human, UniProt Q6GTX8 22-165, limits assumed)
# T1 chain: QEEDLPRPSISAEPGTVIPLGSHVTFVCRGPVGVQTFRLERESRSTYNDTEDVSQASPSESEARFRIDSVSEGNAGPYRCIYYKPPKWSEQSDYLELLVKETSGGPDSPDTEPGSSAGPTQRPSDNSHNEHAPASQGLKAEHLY
# assay.name: cell-based or functional assay; note: test concentration or dose not given here
readout.kind: GFP+ of LAIR1 reporter cells, Collagen I coated

binder: LA-252 (antibody, V domains shown, Rabbit monoclonal IgG; Called a potential antagonist antibody) VH: EQSVEESGGRLVTPGTPLTLTCTASGFTISDYHMCWVRQAPGKGLEWIGLIRASHSTAYASWANGRFTISRTSTTVDLKITSPTSEDTATYFCARYGGSGIGCNLWGPGTLVTISS VL: ELVLTQTPASVSEPVGGTVTIKCQASQSIDSNLAWYQQKPGQPPKQLIYAVSNLASGVPSRFKGSGSGTEFTLTISDLECADAASYYCECTYYGNSYVGGFGGGTEVEIK
measured: < 5%

Reference source for all entries: patent US20190338026A1
